Recorded binding signal, one value per entry.
Measured Target: MaxL homodimer (Homo sapiens, UniProt P61244 1-160)
Sequence (P61244 whole entry): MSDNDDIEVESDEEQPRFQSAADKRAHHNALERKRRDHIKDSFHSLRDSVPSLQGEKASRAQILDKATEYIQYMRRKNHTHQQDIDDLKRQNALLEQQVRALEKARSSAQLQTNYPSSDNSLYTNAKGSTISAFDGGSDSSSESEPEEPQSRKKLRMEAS
Assay Remarks: universal protein-binding microarray (PBM); PBS-based mixture, 10 nM His-tagged protein dimer, 2% milk, 200 ng/uL BSA, 50 ng/uL salmon testes DNA, 0.02% TX-100; detection with Alexa 488 anti-His antibody;; high values mean tight binding;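 also: fluorescence intensity normalized to that of the highest-ranked 8-mer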
Recorded Conditions: protein: recombinant; tags: C-terminal His-tag (pET21a); chain copies: 2; dsDNA, one strand shown
The full ranking holds about 33,000 sequences; the median of “normalized occupancy” is about 0.075, and the highest 2% start at about 0.095. The sample as a whole holds a higher share of the highest values than the screen did.
Please state the figure in normalized occupancy; there is no need to write the unit.

Recorded results for 6 sequences are shown here.
{"Construct Sequence": "CAATTATG", "binding signal / normalized occupancy": 0.0802}
{"Construct Sequence": "ACCTTCAA", "binding signal / normalized occupancy": 0.0719}
{"Construct Sequence": "CTGGTCGC", "binding signal / normalized occupancy": 0.0732}
{"Construct Sequence": "CACCCACA", "binding signal / normalized occupancy": 0.0789}
{"Construct Sequence": "AGGTGGGC", "binding signal / normalized occupancy": 0.0818}
{"Construct Sequence": "ATCATGAC", "binding signal / normalized occupancy": 0.0868}

Q: May I ask what binding signal has been recorded for GTTCTCCA ?
Ans: 0.0767

Q: May I ask what binding signal has been recorded for GCGTGAGC ?
Ans: 0.091

Q: May I ask what binding signal has been recorded for ATTCCACG ?
Ans: 0.0964

The reported numbers originate from paper PMC4242493.
